study.system: T1, TGR12-GFP (fused protein of human TGR12 and GFP, encoded by the DNA of SEQ ID NO: 31), stably expressed on … (human, UniProt Q96LB1 1-330)
T1 sequence: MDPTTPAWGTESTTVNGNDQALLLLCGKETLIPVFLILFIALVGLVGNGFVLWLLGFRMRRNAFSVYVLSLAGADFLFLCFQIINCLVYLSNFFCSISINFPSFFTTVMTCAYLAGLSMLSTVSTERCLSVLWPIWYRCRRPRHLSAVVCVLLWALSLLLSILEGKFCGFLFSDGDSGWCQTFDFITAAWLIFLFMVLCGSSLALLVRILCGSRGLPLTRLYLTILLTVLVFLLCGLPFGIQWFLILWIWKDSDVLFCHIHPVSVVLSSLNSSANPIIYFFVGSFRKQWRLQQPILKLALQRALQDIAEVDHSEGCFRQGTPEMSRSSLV
assay.summary: cell-based or functional assay
Where no end group is shown, it is not given here.
measured.metric: maximum activity in the calcium increasing effect (FLIPR), CHO-TGR12, at 300 nM

Worked cases, maximum activity in the calcium increasing effect (FLIPR), CHO-TGR12, at 300 nM given:
Query: // query maximum activity in the calcium increasing effect (FLIPR), CHO-TGR12, at 300 nM value for entry HSDGIFTDSYSRYRKQMAVKKYLAAVLGKRYKQRVKNK (peptide, UniProt P18509 132-169, looked up, not fully specified; ends and bridges not checked, domain: PACAP-38) [human PACAP38 (pituitary adenylate cyclase activating polypeptide 38)]
Result: 23000 fluorescence intensity

Query: Fill in the blank: the reported maximum activity in the calcium increasing effect (FLIPR), CHO-TGR12, at 300 nM of HSDGIFTDSYSRYRKQMAVKKYLAAVL (peptide, UniProt P18509 132-158, looked up, not fully specified; ends and bridges not checked, domain: PACAP-27) [human PACAP27 (pituitary adenylate cyclase activating polypeptide 27)] is ____.
Result: 23000 fluorescence intensity

Query: Entry HSDAVFTDNYTRLRKQMAVKKYLNSILN (peptide, UniProt P01282 125-152, looked up, not fully specified; ends and bridges not checked, domain: VIP; also called vasoactive intestinal peptide) [human VIP (vasoactive intestinal polypeptide)] : reported maximum activity in the calcium increasing effect (FLIPR), CHO-TGR12, at 300 nM = ?
Result: 11200 fluorescence intensity

Proceed to the following item.
Query: For the binder DRMPCRNFFWKTFSSCK (peptide, UniProt O00230 89-105, looked up, not fully specified; ends and bridges not checked) [human cortistatin-17] , what maximum activity in the calcium increasing effect (FLIPR), CHO-TGR12, at 300 nM is on record?
Result: 17900 fluorescence intensity
